Target: GABAA receptor α1 subtype with β2 and γ2 subunits (Homo sapiens, UniProt P14867+P18507)
Construct: expressed in transfected cells; host or cells: HEKT cell line, transient transfection with Fugene 6
Assay: Competition binding assay with [3H]flunitrazepam
pKi: −log10 of the molar value. Where a name gives a salt, the structure may show the parent alone.
OBSERVABLE: pKi

1. CCCOc1cc2c(cn1)[nH]c1cnccc12 [Compound 4, hydrochloride] ... 8.24

---

Target: GABAA receptor α2 subtype with β2 and γ2 subunits (Homo sapiens, UniProt P18507+P47869)
Construct: expressed in transfected cells; host or cells: HEKT cell line, transient transfection with Fugene 6
Assay: Competition binding assay with [3H]flunitrazepam
Where a name gives a salt, the structure may show the parent alone.
OBSERVABLE: Ki (nM)

1. CCCOc1cc2c(cn1)[nH]c1cnccc12 [Compound 4, hydrochloride] ... 6.31

---

Overview of reported Ki across a group of compounds:
Target: GABAA receptor α1 subtype with β2 and γ2 subunits (Homo sapiens, UniProt P14867+P18507)
Construct: expressed in transfected cells; host or cells: HEKT cell line, transient transfection with Fugene 6
Assay: Competition binding assay with [3H]flunitrazepam
Details: [3H]flunitrazepam, α1β2γ2, HEKT cells; read-out: GABAA RECEPTOR BINDING α1
Structures can show the parent of a compound that is named as a salt.
OBSERVABLE: Ki (nM)

1) CC(C)(C)OC(=O)c1cc2c(cn1)[nH]c1cnccc12 ... 2.9
2) CCCOc1cc2c(cn1)[nH]c1ccncc12 [Compound 2, hydrochloride] ... 9.86

Source: patent US8268854B2
